System: NCI/ADR-RES ovarian
assay text: NCI-60 one-dose screen, 48 h
test parameters: 10 µM unless noted
About 83,000 compounds went through this panel and 20% of them were active in at least one assay; those are over-represented in the sample as a whole. Active and inactive are the calls of the source. The calls were made as follows: active = growth percent below 10; inactive = the rest.
Bench note: report the call from Y (active), N (inactive)

{"compound": "CC([C@H]1CCC2C3CCC4C(=O)C(NC=O)=CC[C@]4(C)C3CC[C@@]21C)N(C)C (stereo not given in full)", "assigned category": "N"}
{"compound": "Cc1ccc(/C=C(\\C#N)n2nc3cccc(F)c3n2)cc1", "assigned category": "N"}
{"compound": "O=c1c2cc(F)ccc2sc2c(NCCCNCCO)nc3ccc(F)cc3c12", "assigned category": "N"}
{"compound": "CC(C)n1cnc2c(Nc3cccc(Cl)c3)nc(N[C@H]3CCCC[C@@H]3N)nc21", "assigned category": "N"}
{"compound": "CC(=O)OC[C@H]1OC(Sc2sc(C(=O)c3ccc(Cl)cc3)c(N)c2-c2nc3ccccc3s2)[C@H](OC(C)=O)[C@@H](OC(C)=O)[C@@H]1OC(C)=O (stereo not given in full)", "assigned category": "N"}

// outcome(item) with item = `Cc1c(C(=O)N[C@@H](Cc2ccccc2)C(=O)C(=O)NCc2ccc(F)cc2)[nH]c2ccccc2c1=O`
N

// outcome(item) with item = `COc1cc(-c2nc3sccn3c2-c2ccnc(NCCCNS(=O)(=O)c3ccc(F)cc3)n2)ccc1F`
N

// outcome(item) with item = `CCOC(=O)c1cn2ncnc(Oc3ccc(NC(=O)NCCN(C)C)c(Cl)c3)c2c1C`
N

// outcome(item) with item = `COc1cc(C(=O)/C=C/c2ccc(OCCCCCC[P+](c3ccccc3)(c3ccccc3)c3ccccc3)cc2)cc(OC)c1OC`
N

// outcome(item) with item = `O=c1n(Cc2ccc3ccccc3c2)ccn1Cc1ccc2ccccc2c1`
N

====

Tested on: SNB-75 CNS
assay text: NCI-60 one-dose screen, 48 h (100 = growth as untreated, 0 = no growth, -100 = all killed)
test parameters: 10 µM unless noted
The panel holds about 83,000 compounds, 20% with a hit somewhere; the sample as a whole holds those more often. Active and inactive are the calls of the source. Rule for the calls: active = growth percent below 10; inactive = the rest.
Can you tell me growth for the items I'm about to list?

Completed entries (count: 5):
{"compound": "CCN1C(=O)N(CC)C2Nn3c(s/c(=C\\c4ccc([N+](=O)[O-])cc4)c3=O)=NC21 (configuration not stated)", "target under test": "SNB-75 CNS", "growth": "82% (inactive)"}
{"compound": "CCOC(=O)/C=C1\\S/C(=N\\Nc2ccc([N+](=O)[O-])cc2[N+](=O)[O-])N(Cc2ccccc2)C1=O", "target under test": "SNB-75 CNS", "growth": "55.7% (inactive)"}
{"compound": "Cc1ccc2c(-c3cc(-c4ccccc4)nc(N)c3C#N)cc(=O)oc2c1", "target under test": "SNB-75 CNS", "growth": "100% (inactive)"}
{"compound": "CNC(=O)c1cc(-n2ccc3cc(NC(=O)c4ccc(N5CCOCC5)c(C(F)(F)F)c4)ccc32)ccn1", "target under test": "SNB-75 CNS", "growth": "85.9% (inactive)"}
{"compound": "O=C(Nc1ccc(Cl)cc1F)c1cc(Cl)ccc1O", "target under test": "SNB-75 CNS", "growth": "-6.93% (active)"}

Give measured growth for every item shown.
1. c1ccc2cc(C[n+]3ccn(CCCCCCCCCCCCn4cc[n+](Cc5ccc6ccccc6c5)c4)c3)ccc2c1
2. COc1ccc(CNC(=O)C(=O)[C@H](Cc2ccccc2)NC(=O)c2[nH]c3ccccc3c(=O)c2C)cc1
3. c1ccc2c(c1)Nc1ccncc1S2
4. COc1cc(CCC[P+](c2ccccc2)(c2ccccc2)c2ccccc2)c(OC)c(OC)c1OC
5. NCCCNc1nc2ccccc2c2c(=O)c3cccc(F)c3sc12
6. O=C(N/N=C/[C@H](O)[C@@H](O)[C@@H](O)[C@H](O)CO)c1ccc(NC(=O)c2cccnc2)cc1
7. COc1ccc(-c2[nH]c3ccc(OC)cc3c2/C=C(\C#N)S(=O)(=O)c2ccccc2)cc1

["-96.2% (active)", "87.4% (inactive)", "86.3% (inactive)", "29.7% (inactive)", "42.7% (inactive)", "92.6% (inactive)", "8.92% (active)"]

====

Test system: HCT-116 colon
assay text: NCI-60 one-dose screen, 48 h (100 = growth as untreated, 0 = no growth, -100 = all killed)
test parameters: 10 µM unless noted
Description: Growth inhibition of the HCT-116 human tumor cell line is measured as a screen for anti-cancer activity. Cells are grown in 96 well plates and exposed to the test compound for 48 hours. Compounds are tested at a single concentration, which is 10^-5 M for most compounds. The reported endpoint is percent growth (GI% or GIPRCNT), where numbers from 0 - 100% represent growth inhibition, and numbers from -100% - 0 represent cell death. For example, a value of 40 represents 60% growth inhibition. […]
The panel holds about 83,000 compounds, 20% with a hit somewhere; the sample as a whole holds those more often.
Can you tell me growth for the items I'm about to list?
One number for each entry, in %.

Completed entries (count: 2):
{"compound": "Cc1cccc(OCC(O)CN2CCN(c3ccc(Cl)cc3)CC2)c1 (stereo unspecified)", "target under test": "HCT-116 colon", "observed result": 86.7}
{"compound": "Cc1cc(N2CCCC2)nc(N(CCCNc2ccnc3cc(Cl)ccc23)Cc2ccccn2)n1", "target under test": "HCT-116 colon", "observed result": 16.3}

Give measured growth for every item shown.
1. COc1ccc(-c2nc3sc(-c4ccccc4)cn3n2)cc1
2. CCOC(=O)NCCc1ccccc1
3. O=c1c2cccc(Cl)c2sc2c(NCCCNCCO)nc3ccccc3c12
4. O=C1CCC/C=C\C[C@H]2C=CC(=O)/C2=C/C[C@H](CCc2cccc(C(F)(F)F)c2)O1

1. 40
2. 108
3. -58.9
4. -82

Give measured growth for every item shown.
1. CCc1cccc2c3c(sc12)C(c1ccc(Cl)cc1)C(C#N)=C(N)O3 (stereo unspecified)
2. Cc1ccc(-c2nc(N3CCN(C(=O)c4ccc(OC(F)(F)F)cc4)CC3)c3ccccc3n2)cc1
3. CC/C=C\C[C@@H](O)C/C=C1/C(=O)C=C[C@H]1C/C=C\CCCC(=O)OC
4. CC(C)n1cnc2c(Nc3cccc(Cl)c3)nc(N[C@H]3CCCC[C@@H]3N)nc21
5. Cc1cccc(NCc2cn(-c3ccc(C(=O)O)cc3)nc2-c2ccc(C(=O)O)cc2)n1

1: 17.9; 2: 85.3; 3: -47.1; 4: 28.1; 5: 107

====

Tested on: OVCAR-8 ovarian
assay text: NCI-60 one-dose screen, 48 h (100 = growth as untreated, 0 = no growth, -100 = all killed)
test parameters: 10 µM unless noted
This is part of a sample that, as a whole, favours compounds with a hit. Of some 83,000 tested, about 20% had one in any assay.
result type: growth (%)
Numbers only, in %.

Completed entries (count: 2):
{"molecule": "O=C(Nc1ccc(-c2nc(-c3cccc(OCCN4CCOCC4)c3)c(-c3ccnc(Br)c3)[nH]2)cc1)c1ccccc1", "growth (%)": 41.5}
{"molecule": "CCCCCCCCCCCCCCCCCC1OCC(COC(=O)O[C@]2(CC)C(=O)OCc3c2cc2n(c3=O)Cc3cc4ccccc4nc3-2)O1 (some centres not stated)", "growth (%)": 70.2}

Give measured growth for every item shown.
1. COc1ccc(-c2[nH]c3ccc(OC)cc3c2/C=C(\C#N)S(=O)(=O)c2ccccc2)cc1
2. O=C(Cc1ccc2c(c1)OCCO2)Nc1nc2ccc(F)cc2s1
3. COc1ccc(-c2cc3c4c(nc5ccccc5c4c2)CC(c2cc(OC)c(OC)c(OC)c2)O3)cc1 (configuration not stated)
4. Cc1cc(O)c(C2=NN(c3ccc(S(N)(=O)=O)cc3)C(/C=C/c3ccccc3)C2)cc1Cl (configuration not stated)
5. Cc1nc(/N=C(\N)NC(=O)Nc2cccc(Cl)c2)sc1C

1. 42.2
2. 94.7
3. 32
4. 38.6
5. 94.5

====

Tested on: UACC-257 melanoma
assay text: NCI-60 one-dose screen, 48 h (100 = growth as untreated, 0 = no growth, -100 = all killed)
test parameters: 10 µM unless noted
This is part of a sample that, as a whole, favours compounds with a hit. Of some 83,000 tested, about 20% had one in any assay.
Can you tell me growth for the items I'm about to list?
Give bare numbers, in %.

Completed entries (count: 5):
{"molecule": "c1ccc2cc(C[n+]3ccn(CCCCCCCCCCCCn4cc[n+](Cc5ccc6ccccc6c5)c4)c3)ccc2c1", "growth, %": -67.5}
{"molecule": "CS(=O)(=O)N(c1cc(-c2ccc3ncnc(Nc4ccc(F)c(Cl)c4)c3c2)cnc1Cl)S(C)(=O)=O", "growth, %": 38.8}
{"molecule": "COc1cc(-c2nc3sccn3c2-c2ccnc(NCCCNS(=O)(=O)c3ccc(F)cc3)n2)ccc1F", "growth, %": 77.8}
{"molecule": "CN1CCN(c2ccc(-c3cnc4c(-c5csc6ccccc56)cnn4c3)cc2)CC1", "growth, %": -76.3}
{"molecule": "FC(F)(F)c1cc(Nc2ccc3c(OCCCN4CCOCC4)cccc3n2)ccc1Cl", "growth, %": 96.6}

Give measured growth for every item shown.
1. Oc1ccc(Cl)cc1Cc1cc(Cl)cc(Cl)c1O
2. CCCCCCn1c(-c2ccc(C(=O)O/N=C(\N)c3ccc4c(c3)OCO4)cc2)nc(-c2ccccc2)c1-c1ccccc1
3. COC(=O)c1ccc2[nH]c(O)c(C(=Nc3ccc(N(C)C(=O)CN4CCN(C)CC4)cc3)c3ccccc3)c2c1

1. 74.1
2. 62
3. 35.4

Give measured growth for every item shown.
1. O=C(N/N=C/[C@@H](O)[C@H](O)[C@H](O)CO)c1ccc(NC(=O)c2cccnc2)cc1
2. CSc1ccc2c(c1)c(CCN)c(C)n2Cc1ccc(Cl)c(Cl)c1
3. Cc1ccc(C(=O)NN2C(=O)CSC2c2cccc([N+](=O)[O-])c2)cn1 (stereo not given)
4. Cc1ccc2sc3c(NCCCN)nc4ccccc4c3c(=O)c2c1
5. CN(C)CCCNc1nc2ccccc2c2c(=O)c3cc(F)ccc3sc12

1. 100
2. -73.3
3. 75.8
4. 101
5. 84.9

Give measured growth for every item shown.
1. CCCCCCCCCCCCCCCCCC1OCC(COC(=O)O[C@]2(CC)C(=O)OCc3c2cc2n(c3=O)Cc3cc4ccccc4nc3-2)O1 (stereo not given in full)
2. COc1cc(CCCO)c(OC)c(OC)c1OC

[95.9, 103]
